# Method notes: NCI Yeast Anticancer Drug Screen. Data for the CLN2oe strain (AID 163)
# Particulars: S. cerevisiae CLN2oe strain, at 33.0 µM
About 79,000 compounds went through this panel and 15% of them were active in at least one assay; those are over-represented in the sample as a whole. Calls of active or inactive are those of the source. Rule as the data show it: active = growth inhibition above about 70%; inactive = the rest.
Select the matching outcome among active, inactive

Use these answered entries as a reference point.
Compound | Class label
CC(C)(CCCCC(C)(C)[N+](C)(C)C)[N+](C)(C)C | inactive
Oc1ccc(SCc2ccc(NCc3ccccc3)cc2)cc1 | inactive

Read the next record carefully.
Identify the outcome logged in this assay for the compound shown: O=C(COC(=O)c1ccccc1)c1ccc(Br)cc1
active
